Target: T1, rat APJ receptor (rat, UniProt Q9JHG3 1-377)
T1 sequence (looked up): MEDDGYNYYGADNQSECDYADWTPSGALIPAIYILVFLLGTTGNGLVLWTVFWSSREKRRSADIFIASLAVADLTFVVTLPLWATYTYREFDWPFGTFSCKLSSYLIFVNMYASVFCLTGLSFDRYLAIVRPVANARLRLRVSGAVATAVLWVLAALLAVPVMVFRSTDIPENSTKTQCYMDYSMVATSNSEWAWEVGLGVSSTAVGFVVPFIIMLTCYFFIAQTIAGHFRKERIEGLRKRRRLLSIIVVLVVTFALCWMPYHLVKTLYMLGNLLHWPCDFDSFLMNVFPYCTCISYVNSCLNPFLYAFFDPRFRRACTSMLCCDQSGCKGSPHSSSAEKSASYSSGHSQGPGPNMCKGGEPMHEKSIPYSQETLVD
Experiment: cell-based or functional assay
Starred links: 1 amine or outer side, 2 acyl side, 3 side chain; linkers in the order of their positions; H or OH if unused. Non-standard residues stand in square brackets, D forms with d. No end group written: not given here. *: point of attachment. Oic = O=C(O)[C@@H]1C[C@@H]2CCCC[C@@H]2N1; Phe(4-Cl) = N[C@@H](Cc1ccc(Cl)cc1)C(=O)O; dPhe(4-Cl) = N[C@H](Cc1ccc(Cl)cc1)C(=O)O; γGlu = O=C(O)[C@H](CCC(=O)[*:2])N[*:1]; NMeR = CN[C@@H](CCCNC(=N)N)C(=O)O; Tridecanoyl = CCCCCCCCCCCCC(=O)*; hArg = N=C(N)NCCCC[C@H](N)C(=O)O; Cha = N[C@@H](CC1CCCCC1)C(=O)O; β3hK = NCCCC[C@H](N)CC(=O)O; Nle = CCCC[C@H](N)C(=O)O; Orn = NCCC[C@H](N)C(=O)O; AEEA = NCCOCCOCC(=O)O; BLeu = β-leucine
Measured property: EC50 Rat APJ Receptor (nM)
Answers are plain numbers, in nM.

Binder: Ac-[dQ][hArg]P[NMeR][Cha]SHKG[Oic][Nle]P[dPhe(4-Cl)]-OH (SMILES CCCC[C@H](NC(=O)[C@@H]1C[C@@H]2CCCC[C@@H]2N1C(=O)CNC(=O)[C@H](CCCCN)NC(=O)[C@H](Cc1c[nH]cn1)NC(=O)[C@H](CO)NC(=O)[C@H](CC1CCCCC1)NC(=O)[C@H](CCCNC(=N)N)N(C)C(=O)[C@@H]1CCCN1C(=O)[C@H](CCCCNC(=N)N)NC(=O)[C@@H](CCC(N)=O)NC(C)=O)C(=O)N1CCC[C@H]1C(=O)N[C@H](Cc1ccc(Cl)cc1)C(=O)O) [apelin polypeptide SEQ ID NO: 55]
Unit annotation: nM
EC50 Rat APJ Receptor: 145
--
Binder: Tridecanoyl-[γGlu][AEEA][AEEA][dQ][hArg]P[dR][BLeu]SHKG[Oic][Nle]P[dPhe(4-Cl)]-OH [apelin polypeptide SEQ ID NO: 281]
Unit annotation: nM
EC50 Rat APJ Receptor: 87.3

Next up:
Name the reported EC50 Rat APJ Receptor value associated with the binder [Orn]F[hArg][hArg]Q[hArg]P[hArg][Cha]SH[β3hK]G[Oic][Nle]P[Phe(4-Cl)] [apelin polypeptide SEQ ID NO: 701]
0.879
